First Scan Tm values for the molecules below.
ASSAY: Thermal stability by differential scanning calorimetry
Assay type: physicochemical
STATED CONDITIONS: cysteine-NEM conjugates, DSC 25-100° C., 1° C. per minute
Description: The thermal stability of cysteine-NEM conjugates was assessed by differential scanning calorimetry (DSC). The only the conjugates tested were those determined to express at high levels, conjugate efficiently, and retain EGFR binding. Additionally, cysteine variants within the BC and FG loops were excluded. Stability data was generated by heating a 400 μL aliquot of the variant from 25° C. to 100° C. at a scan rate of 1° C. per minute in a VP-DSC instrument (MicroCal). […]
VALUE KIND: First Scan Tm

MOLECULE	VALUE KIND	EXPERIMENTAL VALUE
I91C (protein) LPAPKNLVVSEVTEDSARLSWDDPWAFYESFLIQYQESEKVGEAIVLTVPGSERSYDLTGLKPGTEYTVSIYGVHNVYKDTNMRGLPLSACFTT	First Scan Tm	70 °C
T48C (protein, EGFR binding FN3 domain; EGFR-binding FN3 domain) chain 1: MLPAPKNLVVSEVTEDSARLSWDDPWAFYESFLIQYQESEKVGEAIVLCVPGSERSYDLTGLKPGTEYTVSIYGVHNVYKDTNMRGLPLSAIFTT chain 2: LPAPKNLVVSEVTEDSARLSWDDPWAFYESFLIQYQESEKVGEAIVLCVPGSERSYDLTGLKPGTEYTVSIYGVHNVYKDTNMRGLPLSAIFTT	First Scan Tm	72 °C
T68C (protein, EGFR binding FN3 domain; EGFR-binding FN3 domain) chain 1: MLPAPKCLVVSEVTEDSARLSWDDPWAFYESFLIQYQESEKVGEAIVLTVPGSERSYDLTGLKPGTEYTVSIYGVHNVYKDTNMRGLPLSAIFTT chain 2: LPAPKCLVVSEVTEDSARLSWDDPWAFYESFLIQYQESEKVGEAIVLTVPGSERSYDLTGLKPGTEYTVSIYGVHNVYKDTNMRGLPLSAIFTT	First Scan Tm	72 °C
N6C (protein) LPAPKCLVVSEVTEDSARLSWDDPWAFYESFLIQYQESEKVGEAIVLTVPGSERSYDLTGLKPGTEYTVSIYGVHNVYKDTNMRGLPLSAIFTT	First Scan Tm	71 °C
